# Procedure Details: Quantitative highthroughput screen to assess conditional lethalithy of NOMO1 cells grown in RPMI1640 with dialyzed fetal bovine serum (RPMI+ds) (AID 1963877); further: nearly all actives have a fitted effect of over 30% in size
# Experimental Conditions: NOMO1 in RPMI+dialyzed FBS viability, ATP luminescence, 48 h; series mostly up to 45.8 µM
Inconclusive results are not listed. The source made the active and inactive calls. The call rests on the fitted dose curve; in most records, active means well fitted cell-killing curve with a large enough effect; inconclusive means small, poorly fitted or top-dose-only effect; inactive means flat fitted curve, though single readings scatter.
Your answer must be one of the following: yes for active, no for inactive

Recorded test outcome, item O=S(=O)(c1cccc2cnccc12)N1CCCNCC1 no

Status in this test for Cc1c(O)cccc1C(=O)N[C@@H](CSc1ccccc1)[C@H](O)CN1C[C@H]2CCCC[C@@H]2C[C@@H]1C(=O)NC(C)(C)C ? no

Per the records of this test, what outcome belongs to COC(=O)C1=CO[C@@H](O)[C@@H]2C(CO)=CC[C@@H]12 ? no

# outcome recorded in this test, key = O=C1c2c(O)cc(O)cc2OC(c2ccc(O)c(O)c2)C1O (configuration not stated) no

Please let me know the test result on file for NCCCCCC(=O)O . no

Write down the call the test reported for this compound. Item: O=c1cc(N2CCOCC2)oc2c(-c3ccccc3)cccc12 no

Would you mind telling me which call this test gave COc1cc2c(cc1OC)CC(=O)N(CCCN(C)C[C@H]1Cc3cc(OC)c(OC)cc31)CC2 ? no

# fetch the recorded call for CO[C@H]1C[C@@H]2CC[C@@H](C)[C@@](O)(O2)C(=O)C(=O)N2CCCC[C@@H]2C(=O)O[C@H]([C@@H](C)C[C@@H]2CC[C@H](O)[C@H](OC)C2)CC(=O)[C@H](C)C=C(C)[C@@H](O)[C@@H](OC)C(=O)[C@H](C)C[C@H](C)C=CC=CC=C1C here no

State the result this test recorded for CCOC(=O)C=C[C@H](C[C@@H]1CCNC1=O)NC(=O)[C@@H](CC(=O)[C@@H](NC(=O)c1cc(C)on1)C(C)C)Cc1ccc(F)cc1 . no

Hey, what did the test say about CN1CC(=O)N2C(Cc3c([nH]c4ccccc34)[C@H]2c2ccc3c(c2)OCO3)C1=O (some centres not stated) ? no

Entry O=C(CCCCCCC(=O)Nc1ccccc1)NO : call = ? yes

Please let me know the test result on file for O=C(NNC(=O)c1ccc(CNS(=O)(=O)c2ccc(F)c(Cl)c2)cc1)c1ccccc1 . no

Outcome? CCN(CC)C(=S)SSC(=S)N(CC)CC yes

Returns: the outcome recorded for O=C1NCCc2[nH]c(-c3ccncc3)cc21 in this assay. yes

Test call for this compound, please: CN1CCC(=C2c3ccccc3CC(=O)c3sccc32)CC1 no

Answer briefly: the call reported for COc1cc(F)c(C(C)C)cc1-c1ccc(C(F)(F)F)cc1CN1C(=O)O[C@H](c2cc(C(F)(F)F)cc(C(F)(F)F)c2)[C@@H]1C in this assay. no

Check the results log: what was the call for O=C(Nc1cc2cc[nH]c2cn1)c1ccccc1 ? yes

Please state the recorded outcome for this compound: CCCCCCCCCCCCCCCCCCCCCCO no

In this assay, the call recorded for C[C@@H]1[C@H](C)CC[C@]2(C(=O)O)CC[C@]3(C)C(=CC[C@@H]4[C@@]5(C)CC[C@H](O)C(C)(C)[C@H]5CC[C@]43C)[C@@H]12 was what? no

Can you look up the reported call for COc1ccc(Cc2ccc(NC(N)=O)cc2)cc1-c1cccc(Cl)c1 for me? no

Can you look up the reported call for C#Cc1cccc(Nc2ncnc3cc(OC)c(OCCCCCCC(=O)NO)cc23)c1 for me? yes

Which outcome was assigned to CC(C)(OCc1nn(Cc2ccccc2)c2ccccc12)C(=O)O in this test? no

Which outcome was assigned to O=C(O)[C@H](CC(=O)N1C[C@@H]2CCCC[C@H]2C1)Cc1ccccc1 in this test? no

Query: recorded result category for CCC=CC[C@H]1C(=O)CC[C@@H]1CC(=O)OC in this test no

So what was the verdict on CCCCCCCN(CC)CCCC(O)c1ccc(NS(C)(=O)=O)cc1 (configuration not stated) in this test? no

Any idea what this test logged for COc1ccc(C2(C#N)CCC(C(=O)O)CC2)cc1OC1CCCC1 (configuration not stated) ? no

Hello, I am checking results. What call was entered for C=C1C(=CC=C2CCC[C@]3(C)[C@@H]([C@H](C)C=C[C@H](C)C(C)C)CC[C@@H]23)C[C@@H](O)C[C@@H]1O ? yes

Would you mind telling me which call this test gave Cn1cc(-c2ccncc2)c(-c2ccc(OCc3ccc4ccccc4n3)cc2)n1 ? no

Outcome logged for CC(C)C[C@H](NC(=O)[C@H](Cc1ccccc1)NC(=O)c1cnccn1)B(O)O in this assay: yes

Recorded test outcome, item CN(C)c1ccc(Nc2nc(N)n(C(=O)c3c(F)cccc3F)n2)cc1 yes

Dear all, I need the recorded test outcome for NCCS(=O)(=O)O , thank you. no

Check the results log: what was the call for Cc1nc(NC(=O)N2CCC[C@@H]2C(N)=O)sc1-c1ccnc(C(C)(C)C(F)(F)F)c1 ? yes
